Values compiled from patent US10004701B2.

Tested on: P. aeruginosa
assay notes: AK assay 384-well format, Prestwick library screening
Type: cell-based, Pseudomonas aeruginosa
run parameters: Pseudomonas aeruginosa, 3 h; planktonic P. aeruginosa; 50 μM final drug concentration; 384-well; cutoff for positive-scoring molecules 3-fold increase; read-out: AK-based Prestwick Library Screening Results: P. aeruginosa (increase in extracellular AK activity)
Where a name gives a salt, the structure may show the parent alone.
A collection of molecules and their measured fold induction at 50 µM

| molecule | fold induction at 50 µM |
| --- | --- |
| CC1COc2c(N3CCN(C)CC3)c(F)cc3c(=O)c(C(=O)O)cn1c23 (stereo not shown) | 20 |
| O=c1[nH]c2ccccc2n1C1CCN(CCCC(c2ccc(F)cc2)c2ccc(F)cc2)CC1 [Pimozide] | 1.3 |
| CC(=O)O[C@H]1C(=O)[C@@]2(C)[C@H]([C@H](OC(=O)c3ccccc3)[C@]3(O)C[C@H](OC(=O)[C@H](O)[C@@H](NC(=O)c4ccccc4)c4ccccc4)C(C)=C1C3(C)C)[C@]1(OC(C)=O)CO[C@@H]1C[C@@H]2O | 1 |
| Clc1ccc(COC(Cn2ccnc2)c2ccc(Cl)cc2Cl)c(Cl)c1 (stereo not shown) | 1.2 |
| [H]/N=C(/N)N[C@H]1[C@H](O)[C@@H](O)[C@H](O[C@@H]2O[C@@H](C)[C@](O)(C=O)[C@H]2O[C@@H]2O[C@@H](CO)[C@H](O)[C@@H](O)[C@@H]2NC)[C@@H](N/C(N)=N\[H])[C@@H]1O [Streptomycin sulfate] | 0.4 |
| CN(C)[C@@H]1C(O)=C(C(N)=O)C(=O)[C@@]2(O)C(O)=C3C(=O)c4c(O)cccc4[C@@](C)(O)[C@H]3[C@H](O)[C@@H]12 [Oxytetracycline dihydrate] | 0.5 |
| CN1CCN(CCCN2c3ccccc3Sc3ccc(C(F)(F)F)cc32)CC1 [Trifluoperazine dihydrochloride] | 1.4 |
| CC(=O)OCC(=O)[C@@]1(O)[C@H](C)C[C@H]2[C@@H]3CCC4=CC(=O)C=C[C@]4(C)[C@@]3(F)[C@@H](O)C[C@@]21C [Dexamethasone acetate] | 1 |
| CCN(CC)CC#CCOC(=O)C(O)(c1ccccc1)C1CCCCC1 (stereo not shown) [Oxybutynin chloride] | 1 |
| Clc1ccc(Cn2c(CN3CCCC3)nc3ccccc32)cc1 [Clemizole hydrochloride] | 1.2 |
| COc1ccc(Cl)cc1C(=O)NCCc1ccc(S(=O)(=O)NC(=O)NC2CCCCC2)cc1 [Glibenclamide] | 1.2 |
| Clc1ccc(CCC(Cn2ccnc2)Sc2c(Cl)cccc2Cl)cc1 (stereo not shown) [Butoconazole nitrate] | 0.5 |
| CO[C@]12C[C@@H](COC(=O)c3cncc(Br)c3)CN(C)[C@@H]1Cc1cn(C)c3cccc2c13 | 1.2 |

* * *

Test system: K. pneumoniae
assay notes: AK assay 384-well format, Prestwick library screening
Assay type: cell-based, Klebsiella pneumoniae
run parameters: Klebsiella pneumoniae, 3 h; 50 μM final drug concentration; 384-well format; cutoff for positive-scoring molecules 3-fold increase; read-out: AK-based Prestwick Library Screening Results, K. pneumoniae (increase in extracellular AK activity)
Counter-ions that a name gives are not always drawn.

| compound | fold induction at 50 µM |
| --- | --- |
| C#C[C@]1(O)CC[C@H]2[C@@H]3CCC4=C(CCC(=O)C4)[C@H]3CC[C@@]21C | 0.7 |
| CCCCOc1ccc(C(=O)CCN2CCCCC2)cc1 [Dyclonine hydrochloride] | 0.7 |
| Nc1ccc(S(=O)(=O)c2ccc(N)cc2)cc1 | 0.7 |
| Nc1cc(N2CCCCC2)nc(N)[n+]1[O-] | 0.6 |
| CC[C@@H](CO)NCCN[C@@H](CC)CO [Ethambutol dihydrochloride] | 0.7 |
| Cc1c(N)c(=O)n(-c2ccccc2)n1C | 0.7 |
| CC(C)NCC(O)COc1cccc2[nH]ccc12 (centres unmarked) | 0.6 |
| Cc1ccccc1OCC(O)CO (centres unmarked) | 0.7 |
| OC(c1cc(C(F)(F)F)nc2c(C(F)(F)F)cccc12)C1CCCCN1 (centres unmarked) [Mefloquine hydrochloride] | 1.3 |
| C[C@]12C=CC(=O)C=C1CC[C@H]1[C@@H]3C[C@@H](O)[C@](O)(C(=O)CO)[C@@]3(C)C[C@H](O)[C@@]12F | 0.7 |
| Nc1ccc(S(=O)(=O)Nc2nccs2)cc1 | 0.6 |
| CC(NCCC(c1ccccc1)c1ccccc1)c1ccccc1 (centres unmarked) [Fendiline hydrochloride] | 0.8 |
| C#CCN(C)Cc1ccccc1 [Pargyline hydrochloride] | 0.8 |
| CCN(CC)CCOC(=O)c1ccc(N)cc1 [Procaine hydrochloride] | 1 |
| NCc1ccc(S(N)(=O)=O)cc1 [Mafenide hydrochloride] | 0.5 |
| C#C[C@]1(O)CC[C@H]2[C@@H]3CCC4=CC(=O)CC[C@@H]4[C@H]3CC[C@@]21C | 0.7 |
| CN(C)CCC=C1c2ccccc2COc2ccccc21 [Doxepin hydrochloride] | 0.8 |
| Cc1ncc([N+](=O)[O-])n1CCO | 0.4 |
| C#C[C@]1(O)CC[C@H]2[C@@H]3CCC4=CCCC[C@@H]4[C@H]3CC[C@@]21C | 0.6 |
| CC(=O)Oc1ccccc1C(=O)Oc1ccccc1C(=O)O | 0.6 |
| CCc1nc(N)nc(N)c1-c1ccc(Cl)cc1 | 0.7 |
| Nc1nc(N)c2nc(-c3ccccc3)c(N)nc2n1 | 0.5 |
| C1CCc2nnnn2CC1 | 0.5 |
| O=C(CCCN1CCC(O)(c2ccc(Cl)cc2)CC1)c1ccc(F)cc1 | 0.6 |
| NS(=O)(=O)c1cc2c(cc1Cl)NCNS2(=O)=O [Hydrochlorothiazide] | 0.6 |
| Clc1ccc(C(Cn2ccnc2)OCc2c(Cl)cccc2Cl)c(Cl)c1 (centres unmarked) | 1.4 |
| CN(C)C/C=C(/c1ccc(Br)cc1)c1cccnc1 [Zimelidine dihydrochloride monohydrate] | 0.5 |
| CN1CCC(=C2c3ccccc3C=Cc3ccccc32)CC1 [Cyproheptadine hydrochloride] | 0.6 |
| COc1ccc2cc([C@H](C)C(=O)O)ccc2c1 | 0.9 |
| c1ccc(CN(CC2=NCCN2)c2ccccc2)cc1 [Antazoline hydrochloride] | 0.6 |
| C=CCc1ccccc1OCC(O)CNC(C)C (centres unmarked) [Alprenolol hydrochloride] | 0.5 |
| CN(C)CCCN1c2ccccc2CCc2ccc(Cl)cc21 [Clomipramine hydrochloride] | 0.7 |
| CC[C@]12CCCN3CCc4c(n(c5ccccc45)[C@@](O)(C(=O)OC)C1)[C@@H]32 | 0.7 |
| NCCc1cc[nH]n1 [Betazole hydrochloride] | 0.9 |
| CC1=C(/C=C/C(C)=C/C=C/C(C)=C/C(=O)O)C(C)(C)CCC1 | 0.6 |
| CCCNC(C)C(=O)Nc1ccccc1C (centres unmarked) [Prilocaine hydrochloride] | 0.7 |
| Cc1cc(NS(=O)(=O)c2ccc(N)cc2)no1 | 0.6 |
| CN/C(=N/CCSCc1nc[nH]c1C)NC#N | 0.7 |

* * *

System: E. cloacae
assay notes: AK assay 384-well format, Prestwick library screening
Format: cell-based, Enterobacter cloacae
run parameters: Enterobacter cloacae, 3 h; 50 μM final drug concentration; cutoff for positive-scoring molecules 3-fold increase; read-out: AK-based Prestwick Library Screening Results, E. cloacae (fold increase in extracellular AK activity)
Structures can show the parent of a compound that is named as a salt.
A collection of compounds and their measured fold induction at 50 µM

| compound | fold induction at 50 µM |
| --- | --- |
| CN(C)[C@@H]1C(O)=C(C(=O)NCN2CCCC2)C(=O)[C@@]2(O)C(O)=C3C(=O)c4c(O)cccc4[C@@](C)(O)[C@H]3C[C@@H]12 [Rolitetracycline] | 1.7 |
| COc1cc2nc(N3CCN(C(=O)C4COc5ccccc5O4)CC3)nc(N)c2cc1OC (stereo not drawn) [Doxazosin mesylate] | 1.5 |
| Cc1cc(C)nc(NS(=O)(=O)c2ccc(N)cc2)n1 [Sulfamethazine sodium salt] | 1.4 |

* * *

Test system: E. cloacae
assay notes: AK assay 384-well format, Prestwick library screening
Type: cell-based, Enterobacter cloacae
run parameters: Enterobacter cloacae, 3 h; planktonic E. cloacae; 50 μM final drug concentration; 384-well; cutoff for positive-scoring molecules 3-fold increase; read-out: AK-based Prestwick Library Screening Results: E. cloacae (increase in extracellular AK activity)
Structures can show the parent of a compound that is named as a salt.
A collection of compounds and their measured fold induction at 50 µM
measured endpoint: fold induction at 50 µM

| compound | reported measurement |
| --- | --- |
| COc1ccc(CCN2CCC(Nc3nc4ccccc4n3Cc3ccc(F)cc3)CC2)cc1 [Astemizole] | 1.6 |
| CN1CCN(CCCN2c3ccccc3Sc3ccc(C(F)(F)F)cc32)CC1 [Trifluoperazine dihydrochloride] | 1.3 |
| CCCNC(=O)NS(=O)(=O)c1ccc(Cl)cc1 [Chlorpropamide] | 0.3 |
| Cc1ccc(N(CC2=NCCN2)c2cccc(O)c2)cc1 [Phentolamine hydrochloride] | 1.2 |
| COc1ccc([C@@H]2Sc3ccccc3N(CCN(C)C)C(=O)[C@@H]2OC(C)=O)cc1 [Diltiazem hydrochloride] | 1.5 |
| Nc1c2c(nc3ccccc13)CCCC2 [Tacrine hydrochloride hydrate] | 0.4 |
| CN1C(C(=O)Nc2ccccn2)=C(O)c2ccccc2S1(=O)=O [Piroxicam] | 1.4 |
| CC/C(=C(\c1ccccc1)c1ccc(OCCN(C)C)cc1)c1ccccc1 [Tamoxifen citrate] | 1.3 |
| COC(=O)Nc1nc2ccc(C(=O)c3ccccc3)cc2[nH]1 [Mebendazole] | 1.2 |
| CN(C)[C@@H]1C(O)=C(C(N)=O)C(=O)[C@@]2(O)C(O)=C3C(=O)c4c(O)cccc4[C@@](C)(O)[C@H]3C[C@@H]12 [Tetracycline hydrochloride] | 1 |
| COc1cc(C(=O)OCCCN2CCCN(CCCOC(=O)c3cc(OC)c(OC)c(OC)c3)CC2)cc(OC)c1OC [Dilazep dihydrochloride] | 1.1 |
| CNC(=C[N+](=O)[O-])NCCSCc1ccc(CN(C)C)o1 [Ranitidine hydrochloride] | 1.5 |
| CCc1cccc2c3c([nH]c12)C(CC)(CC(=O)O)OCC3 (stereo not shown) [Etodolac] | 1.2 |
